# protocol_notes: Protective index, ratio of TD50 for neurotoxicity in ip dosed Mus musculus CF1 albino (mouse) to ED50 for protection against subcutaneous metrazol-induced seizures in ip dosed Mus musculus CF1 albino (mouse)
# Format: toxicity, organism-based
# test_conditions: in vivo, read-out: Ratio TD50/ED50
measured_quantity: selectivity ratio

Sample answers from the record:
INSERT INTO measurements (structure_string, measured_quantity, assay_result) VALUES
  ('COc1ccc(-c2nc(-c3ccccc3)c[nH]2)cc1', 'selectivity ratio', 1.4),
  ('COc1ccc(-c2nc(-c3cccc(Cl)c3)c[nH]2)cc1', 'selectivity ratio', 3.8);

**Query** Please look up its selectivity ratio: COc1ccc(-c2nc(-c3ccc(Cl)cc3)c[nH]2)cc1
**Result** 1.5

###

# protocol_notes: Protective index, ratio of TD50 for neurotoxicity in ip dosed Mus musculus CF1 albino (mouse) to ED50 for protection against electrically-induced seizure by 6Hz psychomotor seizure test in ip dosed Mus musculus CF1 albino (mouse)
# Type: toxicity, organism-based
# test_conditions: in vivo, read-out: Ratio TD50/ED50
measured_quantity: selectivity ratio
Reply with the value as a number alone.

INSERT INTO measurements (structure_string, assay_result) VALUES
  ('Cc1ccc(-c2nc(-c3ccccc3)c[nH]2)cc1', 3);

# ---- query compound ----
**Query** Param item = FC(F)(F)Oc1ccc(-c2nc(-c3ccccc3)c[nH]2)cc1 ; retrieve measured selectivity ratio.
**Result** 4.8

###

# Tested on: Mus musculus
# protocol_notes: Neurotoxicity in Mus musculus CF1 albino (mouse) assessed as minimal motor impairment at 300 mg/kg, ip measured at 0.5 hr by rotorod test
# Format: toxicity, organism-based
# Design: dose 300 mg/kg, route intraperitoneal
# test_conditions: in vivo
measured_quantity: Activity

# annotated cases, reported Activity shown
INSERT INTO results (structure_string, measured_quantity, assay_result) VALUES
  ('COc1ccc(-c2nc(-c3ccccc3)c[nH]2)cc1', 'Activity', 'Toxic'),
  ('CC(C)Oc1ccc(-c2nc(-c3ccccc3)c[nH]2)cc1', 'Activity', 'Toxic'),
  ('COc1ccc(-c2nc(-c3ccc(Cl)cc3)c[nH]2)cc1', 'Activity', 'Non-toxic'),
  ('c1ccc(-c2c[nH]c(-c3ccccc3)n2)cc1', 'Activity', 'Toxic'),
  ('FC(F)(F)Oc1ccc(-c2nc(-c3ccccc3)c[nH]2)cc1', 'Activity', 'Toxic');

**Query** So what's the measured Activity for this one? CCOc1ccc(-c2nc(-c3ccccc3)c[nH]2)cc1
**Result** Non-toxic

**Query** Also Cc1ccc(-c2nc(-c3ccccc3)c[nH]2)cc1 , if possible.
**Result** Non-toxic

**Query** Next compound up: CC(C)c1ccc(-c2nc(-c3ccccc3)c[nH]2)cc1
**Result** Non-toxic

**Query** Then COc1ccc(-c2nc(-c3cccc(Cl)c3)c[nH]2)cc1 ?
**Result** Non-toxic

###

# System: Mus musculus
# protocol_notes: Anticonvulsant activity in Mus musculus CF1 albino (mouse) assessed as protection against subcutaneous metrazol-induced seizures at 100 mg/kg, ip measured at 4 hr
# Format: functional, organism-based
# Parameters: dose 100 mg/kg
Active and inactive are the calls of the source. The calls are words filed in the database; no cut-off is given here.
measured_quantity: Activity

// worked examples, Activity included
INSERT INTO measurements (structure_string, assay_result) VALUES
  ('CC(C)Oc1ccc(-c2nc(-c3ccccc3)c[nH]2)cc1', 'inactive'),
  ('c1ccc(-c2c[nH]c(-c3ccccc3)n2)cc1', 'inactive'),
  ('CC(C)c1ccc(-c2nc(-c3ccccc3)c[nH]2)cc1', 'inactive'),
  ('COc1ccc(-c2nc(-c3ccc(Cl)cc3)c[nH]2)cc1', 'inactive'),
  ('Cc1ccc(-c2nc(-c3ccccc3)c[nH]2)cc1', 'inactive');

**Query** Data request, read-out Activity, for FC(F)(F)Oc1ccc(-c2nc(-c3ccccc3)c[nH]2)cc1
**Result** inactive

**Query** Try the compound COc1ccc(-c2nc(-c3cccc(Cl)c3)c[nH]2)cc1
**Result** inactive

**Query** COc1ccc(-c2nc(-c3ccccc3)c[nH]2)cc1 ?
**Result** inactive

**Query** What do you have for CCOc1ccc(-c2nc(-c3ccccc3)c[nH]2)cc1 ?
**Result** inactive

###

# protocol_notes: Neurotoxicity in ip dosed Mus musculus CF1 albino (mouse) assessed as minimal motor impairment measured at 0.25 hr by rotorod test
# Assay type: toxicity, organism-based
# test_conditions: in vivo
Recorded TD50 at 0.25 h, one value per entry.
// return numeric value only (unit: mg/kg, not printed)

Completed entries (count: 3):
INSERT INTO measurements (molecule, assay_result) VALUES
  ('COc1ccc(-c2nc(-c3ccc(Cl)cc3)c[nH]2)cc1', 238),
  ('FC(F)(F)Oc1ccc(-c2nc(-c3ccccc3)c[nH]2)cc1', 136),
  ('Cc1ccc(-c2nc(-c3ccccc3)c[nH]2)cc1', 188);

**Query** TD50 at 0.25 h for O=C1NC(=O)C(c2ccccc2)(c2ccccc2)N1 [PHENYTOIN] ?
**Result** 35.6

**Query** Entry to check: COc1ccc(-c2nc(-c3cccc(Cl)c3)c[nH]2)cc1
**Result** 390

###

# Test system: Mus musculus
# protocol_notes: Neurotoxicity in Mus musculus CF1 albino (mouse) assessed as minimal motor impairment at 30 mg/kg, ip measured at 4 hr by rotorod test
# Format: toxicity, organism-based
# Set-up: dose 30 mg/kg, route intraperitoneal
# test_conditions: in vivo
measured_quantity: Activity

INSERT INTO results (structure_string, assay_result) VALUES
  ('FC(F)(F)Oc1ccc(-c2nc(-c3ccccc3)c[nH]2)cc1', 'Non-toxic'),
  ('COc1ccc(-c2nc(-c3ccccc3)c[nH]2)cc1', 'Non-toxic'),
  ('Cc1ccc(-c2nc(-c3ccccc3)c[nH]2)cc1', 'Non-toxic'),
  ('CC(C)Oc1ccc(-c2nc(-c3ccccc3)c[nH]2)cc1', 'Non-toxic'),
  ('c1ccc(-c2c[nH]c(-c3ccccc3)n2)cc1', 'Non-toxic'),
  ('CC(C)c1ccc(-c2nc(-c3ccccc3)c[nH]2)cc1', 'Non-toxic'),
  ('CCOc1ccc(-c2nc(-c3ccccc3)c[nH]2)cc1', 'Non-toxic'),
  ('COc1ccc(-c2nc(-c3cccc(Cl)c3)c[nH]2)cc1', 'Non-toxic');

**Query** Form entry - test system: Mus musculus; read-out: Activity; compound: COc1ccc(-c2nc(-c3ccc(Cl)cc3)c[nH]2)cc1
**Result** Non-toxic

Origin of measurements: ChEMBL document CHEMBL3045552
